The origin of these recorded values is PubChem BioAssay (NCI).

Tested on: PC-3 prostate
procedure.text: NCI-60 one-dose screen, 48 h (100 = growth as untreated, 0 = no growth, -100 = all killed)
conditions.used: 10 µM
About 83,000 compounds went through this panel and 20% of them were active in at least one assay; those are over-represented in the sample as a whole.
readout.kind: growth (%)
Answer with a number only, understood to be in %.

>>> df
                                   molecule  target_under_test  value_reported
0  O=c1[nH][nH]c(Nc2ccccc2)c1N=Nc1ccc(F)cc1      PC-3 prostate            95.5
1  O=C(c1ccc(-n2c(=O)[nH]c3ccccc3c2=O)cc1)N1CCOCC1      PC-3 prostate             103
2  O=C1NC(=NC23CC4CC(CC(C4)C2)C3)N/C1=C\c1ccc2ncoc2c1      PC-3 prostate            5.37
3   O=C1NC(=NC2CCCCCC2)N/C1=C\c1ccc2ncoc2c1      PC-3 prostate            53.8
4  COc1cc2c3c(n(CCCNC(C)C)c(=O)c2cc1OC)-c1nc2c(cc1C3=O)OCO2      PC-3 prostate           -66.1

**Query** May I ask what growth has been recorded for Cc1ccc(CNC(=O)Cc2ccc3c(c2)CN(C2CCC(=O)NC2=O)C3=O)cc1 (stereo not drawn) ?
**Result** 10.4
